type: in vivo, human (healthy adult subjects); conditions: human, blood, 0.75 mg
test-readout: Cmax (ng/mL)
Quick note: give the figure in ng/mL, leave out the unit.

IN: Fill in: Cmax of `CO[C@H]1C[C@@H]2CC[C@@H](C)[C@@](O)(O2)C(=O)C(=O)N2CCCC[C@H]2C(=O)O[C@H]([C@H](C)C[C@@H]2CC[C@@H](OCCO)[C@H](OC)C2)CC(=O)[C@H](C)/C=C(\C)[C@@H](O)[C@@H](OC)C(=O)[C@H](C)C[C@H](C)/C=C/C=C/C=C/1C` is ___
OUT: 3.33

---

assay type: in vivo, human (healthy adult subjects); settings: human, blood, 0.75 mg
test-readout: AUC(0-inf) (ng·h/mL)
Give the value, in units of ng·h/mL, as a plain number.

IN: Consider the compound shown here: CO[C@H]1C[C@@H]2CC[C@@H](C)[C@@](O)(O2)C(=O)C(=O)N2CCCC[C@H]2C(=O)O[C@H]([C@H](C)C[C@@H]2CC[C@@H](OCCO)[C@H](OC)C2)CC(=O)[C@H](C)/C=C(\C)[C@@H](O)[C@@H](OC)C(=O)[C@H](C)C[C@H](C)/C=C/C=C/C=C/1C [Everolimus, everolimus] What is its recorded AUC(0-inf)?
OUT: 41.9
